Where do these numbers come from? They come from patent US6919377B2.

biological target: D2 (Homo sapiens, UniProt P14416); assay: D2 Raclopride (Table 4, no method given); format: binding
Sequence (P14416 whole entry): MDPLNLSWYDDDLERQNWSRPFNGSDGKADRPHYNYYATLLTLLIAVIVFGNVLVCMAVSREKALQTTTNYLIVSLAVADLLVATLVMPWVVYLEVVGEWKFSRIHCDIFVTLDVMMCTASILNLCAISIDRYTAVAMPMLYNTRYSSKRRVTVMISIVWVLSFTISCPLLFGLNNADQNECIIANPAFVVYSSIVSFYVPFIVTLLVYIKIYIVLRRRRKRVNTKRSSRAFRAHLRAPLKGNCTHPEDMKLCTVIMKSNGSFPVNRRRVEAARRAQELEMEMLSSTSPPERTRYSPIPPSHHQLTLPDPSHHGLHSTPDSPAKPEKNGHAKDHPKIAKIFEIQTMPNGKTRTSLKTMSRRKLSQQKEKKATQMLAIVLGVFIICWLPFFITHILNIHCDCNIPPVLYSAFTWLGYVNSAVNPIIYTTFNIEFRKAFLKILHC
pIC50: −log10 of the molar value.
This section presents compounds with their documented pIC50 values.
readout.type: pIC50

[[record]]
compound = "COc1ccc(CCN[C@H]2CC[C@H](c3ccc(O)cc3)CC2)cc1 [Example 8b]"
readout_type = "pIC50"
recorded_number = 5.72

[[record]]
compound = "COc1ccc(CCN[C@H]2CC[C@@H](c3ccc(O)cc3)CC2)cc1 [Example 8a]"
readout_type = "pIC50"
recorded_number = 5.30

[[record]]
compound = "COc1ccc(CCCN[C@H]2CC[C@H](c3ccc(O)cc3)CC2)cc1 [Example 28]"
readout_type = "pIC50"
recorded_number = 5.53

[[record]]
compound = "Oc1ccc([C@H]2CC[C@@H](NCCc3ccc(F)cc3)CC2)cc1 [Example 5a]"
readout_type = "pIC50"
recorded_number = 5.57

